Cited source: patent US12441726B2

system: BRM (Homo sapiens, UniProt P51531)
Sequence (P51531 whole entry): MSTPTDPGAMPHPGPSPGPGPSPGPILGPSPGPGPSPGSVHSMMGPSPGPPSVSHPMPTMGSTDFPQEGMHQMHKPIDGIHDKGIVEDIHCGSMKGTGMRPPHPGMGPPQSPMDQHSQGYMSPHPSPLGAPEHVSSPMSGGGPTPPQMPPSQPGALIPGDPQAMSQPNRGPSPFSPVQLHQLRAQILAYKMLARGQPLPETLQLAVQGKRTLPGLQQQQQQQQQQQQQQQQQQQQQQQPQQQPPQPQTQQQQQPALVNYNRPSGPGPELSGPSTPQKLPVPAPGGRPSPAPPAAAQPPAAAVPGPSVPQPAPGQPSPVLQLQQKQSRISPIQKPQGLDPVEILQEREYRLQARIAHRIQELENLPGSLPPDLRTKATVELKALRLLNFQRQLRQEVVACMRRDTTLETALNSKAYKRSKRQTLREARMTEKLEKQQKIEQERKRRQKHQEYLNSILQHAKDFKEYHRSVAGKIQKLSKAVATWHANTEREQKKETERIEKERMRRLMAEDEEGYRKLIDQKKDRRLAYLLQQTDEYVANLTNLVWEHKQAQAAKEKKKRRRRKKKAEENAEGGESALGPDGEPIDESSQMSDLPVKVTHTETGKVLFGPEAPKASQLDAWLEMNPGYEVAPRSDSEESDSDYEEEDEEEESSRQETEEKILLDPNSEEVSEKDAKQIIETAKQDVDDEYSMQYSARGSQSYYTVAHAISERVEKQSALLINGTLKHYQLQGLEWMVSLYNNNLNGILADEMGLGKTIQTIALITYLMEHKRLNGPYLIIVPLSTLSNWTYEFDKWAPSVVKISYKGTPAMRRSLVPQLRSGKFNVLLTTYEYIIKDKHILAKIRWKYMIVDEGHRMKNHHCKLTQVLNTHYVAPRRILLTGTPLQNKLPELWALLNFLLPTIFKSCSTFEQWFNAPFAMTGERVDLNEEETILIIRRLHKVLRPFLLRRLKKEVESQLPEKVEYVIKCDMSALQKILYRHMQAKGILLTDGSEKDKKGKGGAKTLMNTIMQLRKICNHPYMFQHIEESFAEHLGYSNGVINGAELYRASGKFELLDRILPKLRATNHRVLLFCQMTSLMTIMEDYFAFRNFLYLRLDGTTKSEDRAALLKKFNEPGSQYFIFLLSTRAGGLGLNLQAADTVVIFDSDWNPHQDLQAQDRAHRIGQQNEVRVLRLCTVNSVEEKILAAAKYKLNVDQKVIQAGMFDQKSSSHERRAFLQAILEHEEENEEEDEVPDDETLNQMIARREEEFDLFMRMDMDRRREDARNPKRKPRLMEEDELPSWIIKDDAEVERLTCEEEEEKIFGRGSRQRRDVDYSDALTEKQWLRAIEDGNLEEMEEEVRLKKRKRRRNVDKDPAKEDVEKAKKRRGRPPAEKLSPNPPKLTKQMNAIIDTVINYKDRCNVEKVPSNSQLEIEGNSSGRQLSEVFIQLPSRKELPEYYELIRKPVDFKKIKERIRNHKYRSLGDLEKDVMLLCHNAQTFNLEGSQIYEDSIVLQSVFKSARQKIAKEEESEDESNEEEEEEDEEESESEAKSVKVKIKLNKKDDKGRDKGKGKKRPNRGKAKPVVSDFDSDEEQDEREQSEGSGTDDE
method: ATPase catalytic activity assay (ADP-Glo), BRM
experimentalConditions: BRM ATPase: IC50 (uM), 30 nM BRM, 400 μM ATP
attributeMeasured: IC50

1. C[C@@]1(C#N)COCc2ccc(C(=O)NCc3cc4cc(-c5ccnc(C6CC6)c5F)cnc4cn3)cc21 [Compound 280] ... 0.1 to 0.5 µM
2. COc1cc(N2CCOCC2)ccc1-c1ccc2cnc(CNC(=O)c3ccc4c(c3)[C@](C)(C#N)COC4)cc2n1 [Compound 155] ... 0.1 to 0.5 µM
3. Cn1ccc2c(F)cc(-c3ccc4cnc(CNC(=O)c5ccc6c(c5)[C@](C)(C#N)COC6)cc4n3)cc2c1=O [Compound 434] ... < 0.1 µM
4. COCCn1c(C)cc2c(-c3ccc4cnc(CNC(=O)c5ccc6c(c5)[C@](C)(C#N)COC6)cc4n3)cccc21 [Compound 133] ... < 0.1 µM
5. COc1cccc(-c2ccc3cnc(CNC(=O)c4ccc5c(c4)[C@](C)(C#N)COC5)cc3n2)c1 [Compound 91] ... < 0.1 µM

Reported IC50 ( C[C@@]1(C#N)COCc2ccc(C(=O)NCc3cc4cc(-c5ccnc(N6CCC6)c5F)cnc4cn3)cc21 [Compound 294] ) = < 0.1 µM

Reported IC50 ( Cn1cc(-c2nc3cc(CNC(=O)c4ccc5c(c4)[C@](C)(C#N)COC5)ncc3s2)cn1 [Compound 289] ) = 0.1 to 0.5 µM

Reported IC50 ( C[C@@]1(C#N)COCc2ccc(C(=O)NCc3cc4nc(-c5cncc(N6CCC6)c5)ccc4cn3)cc21 [Compound 441] ) = 0.1 to 0.5 µM

Reported IC50 ( C[C@@]1(F)COCc2ccc(C(=O)NCc3cc4nc(-c5ccnc(N6CCC6)n5)ccc4cn3)cc21 [Compound 429] ) = < 0.1 µM

Reported IC50 ( COC1CN(C(=O)c2cccc(-c3ccc4cnc(CNC(=O)c5ccc6c(c5)[C@](C)(C#N)COC6)cc4n3)c2)C1 [Compound 445] ) = 0.1 to 0.5 µM

Reported IC50 ( COc1cc(C)nn1-c1ccc2cnc(CNC(=O)c3ccc4c(c3)[C@](C)(C#N)COC4)cc2n1 [Compound 195] ) = 0.1 to 0.5 µM

Reported IC50 ( CN1Cc2ccc(-c3ccc4cnc(CNC(=O)c5ccc6c(c5)[C@](C)(C#N)COC6)cc4n3)cc2C1=O [Compound 485] ) = 0.1 to 0.5 µM

Reported IC50 ( C[C@@]1(C#N)COCc2ccc(C(=O)NCc3cc4c(cn3)CCN(c3cncc(N5CCC5)n3)C4)cc21 [Compound 298] ) = < 0.1 µM

Reported IC50 ( C[C@@]1(F)COCc2ccc(C(=O)NCc3cc4nc(-c5ccnc(N6CCOCC6)n5)ccc4cn3)cc21 [Compound 259] ) = < 0.1 µM
